- assay target: anticardiolipin antibody (serum of patient ACA-6501)
- assay procedure: competitive ELISA, binding of patient ACA-6501 serum to cardiolipin/β2-GPI coated plate
- Parameters: species or system human
- run parameters: amount of peptide that inhibited the human serum's binding by 50%; serum of patient ACA-6501 (GPL score 1500)
Numbered stars: 1 amine (or outer) side, 2 acyl side, 3 side chain; on linkers, the order of the positions; unused ones are H or OH. Bridge positions count the residues as written; N and C are the ends. Square brackets hold non-standard residues; d marks the D form. Peptide text beside a SMILES is read from it. Abu(4-yl) = O=C([C@H](CC[*:3])N[*:1])[*:2]

molecule	assay target	IC50
CC(C)C[C@@H]1NC(=O)C(NC(=O)[C@@H]2CCCN2C(=O)CN)CSC[C@@H](C(=O)N2CCC[C@H]2C(=O)NCC(=O)O)NC(=O)[C@H](CC(C)C)NC(=O)[C@H](CCCCN)NC(=O)CNC(=O)[C@H](CC(C)C)NC(=O)[C@H](C(C)C)NC(=O)CNC1=O (stereo partly drawn)	anticardiolipin antibody (serum of patient ACA-6501)	> 678 µM
CC(C)C[C@@H]1NC(=O)C(NC(=O)[C@@H]2CCCN2C(=O)CNC(=O)[C@H](C)N)CSC[C@@H](C(=O)N2CCC[C@H]2C(=O)NCC(=O)O)NC(=O)[C@H](CC(C)C)NC(=O)[C@H](CCCCN)NC(=O)CNC(=O)[C@H](CC(C)C)NC(=O)[C@H](C(C)C)NC(=O)CNC1=O (stereo partly drawn)	anticardiolipin antibody (serum of patient ACA-6501)	~1050 µM
CC(C)C[C@@H]1NC(=O)[C@@H](NC(=O)[C@@H]2CCCN2C(=O)CNC(=O)[C@H](C)N)CCSC[C@@H](C(=O)N2CCC[C@H]2C(=O)NCC(=O)O)NC(=O)[C@H](CC(C)C)NC(=O)[C@H](CCCCN)NC(=O)CNC(=O)[C@H](CC(C)C)NC(=O)[C@H](C(C)C)NC(=O)CNC1=O [3G3-EMTE] (H-AGP[Abu(4-yl)]LGVLGKLCPG-OH; thioether 4-12; N-terminus and C-terminus assumed)	anticardiolipin antibody (serum of patient ACA-6501)	~1120 µM
